Where these numbers come from: ChEMBL document CHEMBL1124215

Tested on: Oryctolagus cuniculus
Assay: Percentage change of IOP in rabbits after 30 min administration (1%) of compound
Format: functional
VALUE_KIND: Change (%)

>>> print(df.to_string())
                                   compound  result_comparator  observed_measurement
0  CC(C)(C)NC[C@H](O)COc1nsnc1N1CCOCC1 (stereo in doubt) [TIMOLOL]                  =                 -2.43
1  CC(C)NCC(O)COc1cccc2ccccc12 (centres undefined)                  >                  -9.1
2  CC(C)(C)NC[C@H](O)COc1nsnc1N1CCOCC1 (stereo in doubt; 1b) [TIMOLOL]                  >                -10.93
3           CC(C)NC/C(COc1cccc2ccccc12)=N\O                  =                 -3.23

###

# Change annotations
Tested on: Oryctolagus cuniculus
Test: Percentage change of IOP in rabbits after 4 hr administration (1%) of compound
Assay type: functional
VALUE_KIND: Change (%)

>>> print(df.to_string())
                                   compound  observed_measurement
0           CC(C)NC/C(COc1cccc2ccccc12)=N\O                 -20.1
1  CC(C)NCC(O)COc1cccc2ccccc12 (centres undefined) [PROPRANOLOL]                 -8.44
2  CC(C)(C)NC[C@H](O)COc1nsnc1N1CCOCC1 (stereo in doubt) [TIMOLOL]                 -5.31
3  CC(C)(C)NC[C@H](O)COc1nsnc1N1CCOCC1 (stereo in doubt; 1b) [TIMOLOL]                  14.8

###

# IOP values compiled below
Tested on: Oryctolagus cuniculus
Assay: Effect on IOP of rabbits 0 min after administration (1%)
Assay type: functional
VALUE_KIND: IOP (mmHg)

>>> df
                                   compound  value_kind  unit_descriptor  observed_measurement
0  CC(C)NCC(O)COc1cccc2ccccc12 (centres undefined)         IOP             mmHg                  30.8
1  CC(C)(C)NC[C@H](O)COc1nsnc1N1CCOCC1 (stereo in doubt) [TIMOLOL]         IOP             mmHg                 28.44
2  CC(C)(C)NC[C@H](O)COc1nsnc1N1CCOCC1 (stereo in doubt; 1b) [TIMOLOL]         IOP             mmHg                 29.19
3           CC(C)NC/C(COc1cccc2ccccc12)=N\O         IOP             mmHg                  27.8

###

System: Oryctolagus cuniculus
Assay: Effect on IOP of rabbits 3h after administration (1%)
Type: functional
Each item that follows carries a reported IOP.
VALUE_KIND: IOP (mmHg)

In [3]: df
Out[3]:
                                   molecule  observed_measurement
0  CC(C)(C)NC[C@H](O)COc1nsnc1N1CCOCC1 (stereo in doubt; 1b) [TIMOLOL]                    25
1  CC(C)(C)NC[C@H](O)COc1nsnc1N1CCOCC1 (stereo in doubt) [TIMOLOL]                 25.13
2           CC(C)NC/C(COc1cccc2ccccc12)=N\O                  23.3
3  CC(C)NCC(O)COc1cccc2ccccc12 (centres undefined)                  27.4
